Hi there, I'd appreciate the recorded Ki for every entry that follows.
- ASSAY SYSTEM: Mu-type opioid receptor (Rattus norvegicus)
- Sequence (P33535 whole entry): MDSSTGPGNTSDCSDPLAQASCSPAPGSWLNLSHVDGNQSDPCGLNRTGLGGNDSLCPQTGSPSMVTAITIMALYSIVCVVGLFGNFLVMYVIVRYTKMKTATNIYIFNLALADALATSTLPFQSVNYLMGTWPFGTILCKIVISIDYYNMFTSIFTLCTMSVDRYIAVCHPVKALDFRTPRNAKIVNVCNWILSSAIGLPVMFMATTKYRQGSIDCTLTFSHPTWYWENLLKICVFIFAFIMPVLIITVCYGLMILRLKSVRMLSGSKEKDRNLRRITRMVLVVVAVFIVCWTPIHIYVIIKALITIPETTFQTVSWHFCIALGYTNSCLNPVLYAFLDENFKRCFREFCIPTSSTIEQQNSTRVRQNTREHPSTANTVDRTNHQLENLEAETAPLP
Numbers only, in nM.

{"SMI": "Cc1cc(O)cc(C)c1C[C@H](N)C(=O)N1CCC[C@H]1C(=O)N[C@@H](Cc1c[nH]c2ccccc12)C(=O)N[C@@H](Cc1ccccc1)C(N)=O", "ASSAY SYSTEM": "Mu-type opioid receptor (Rattus norvegicus)", "Ki, nM": 0.054}

Working through the 2 compounds below one at a time, give Ki for each.
1. C=CCN[C@@H](Cc1c(C)cc(O)cc1C)C(=O)N1CCC[C@H]1C(=O)N[C@@H](Cc1ccccc1)C(=O)N[C@@H](Cc1ccccc1)C(N)=O
2. C=CCN[C@@H](Cc1c(C)cc(O)cc1C)C(=O)N1CCC[C@H]1C(=O)N[C@@H](Cc1c[nH]c2ccccc12)C(=O)N[C@@H](Cc1ccccc1)C(N)=O

1. 0.45
2. 0.26

Source of measurements: ChEMBL document CHEMBL1146321
